- ASSAY_SYSTEM: G12D-mutant human KRAS (amino acid residues 1-188) (Homo sapiens, UniProt P01116, G12D)
- Construct: G12D or G12C-mutant human KRAS (amino acid residues 1-188) with FLAG tag; made in house; host or cells: E. coli
- Sequence (P01116 1-188 isoform P01116-2 G12D): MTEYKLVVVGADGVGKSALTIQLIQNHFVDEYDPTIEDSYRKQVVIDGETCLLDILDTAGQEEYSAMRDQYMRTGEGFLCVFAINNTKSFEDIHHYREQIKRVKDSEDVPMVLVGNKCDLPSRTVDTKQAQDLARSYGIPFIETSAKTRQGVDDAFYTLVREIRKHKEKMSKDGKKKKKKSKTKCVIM
- TEST_SUMMARY: KRAS Binding Disruption Assay (AlphaScreen; biotinylated KRpep-2d analogue or RAF1-RBD), G12D
- REPORTED_CONDITIONS: KRAS G12D; geometric mean; read-out: KRAS GMean IC50 (uM) MUTATION: G12D
ASSAY_READOUT: IC50

Looking for the measured IC50 of O=S(=O)(N[C@@H]1CCNC1)N1[C@@H]2CC[C@H]1CN(c1nc(OCC34CCCN3CCC4)nc3c(F)c(-c4cc(O)cc5ccccc45)ccc13)C2 [P-0284] , can you help?
0.0001 to 10 µM

Recorded IC50 for CO[C@@H]1C[C@@H](COc2nc(N3C[C@H]4CC[C@@H](C3)N4)c3ccc(-c4cc(O)cc5ccccc45)cc3n2)N(C)C1 [P-0060] , please?
0.0001 to 10 µM

Please give the measured IC50 for this compound: Fc1cc2c(N3C[C@H]4CC[C@@H](C3)N4)nc(OCC34CCCN3CCC4)nc2c(F)c1-c1c[nH]c2c(F)ccc(F)c12 [P-0746]
0.0001 to 10 µM

Look at this compound and give its reported IC50. CCc1cccc2c1N(c1ncc3c(N4C[C@H]5CC[C@@H](C4)N5)nc(OCC45CCCN4CCC5)nc3c1F)CCC2 [P-0558]
0.0001 to 10 µM

Which IC50 reading was recorded for the compound CN1CCC[C@H]1COc1nc(N2C[C@H]3CC[C@@H](C2)N3C(=O)CC#N)c2cc(F)c(-c3cc(O)cc4ccccc34)c(F)c2n1 [P-0464] ?
10 to 100 µM

// IC50 lookup, key: CN1CCC[C@H]1COc1nc(N2[C@@H]3CC[C@H]2CN(C(=O)Nc2cccnc2)C3)c2ccc(-c3cc(O)cc4ccccc34)cc2n1 [P-0210]
10 to 100 µM

Which measured IC50 value corresponds to NCC(=O)N1[C@@H]2CC[C@H]1CN(c1nc(OCC34CCCN3CCC4)nc3cc(-c4cc(O)cc5ccccc45)ccc13)C2 [P-0007] ?
0.0001 to 10 µM

What does the record list as IC50 for Cc1c(-c2cc(O)cc3ccccc23)ccc2c(N3C[C@H]4CC[C@@H](C3)N4)nc(OC[C@@H]3CCCN3C)nc12 [P-0014] ?
0.0001 to 10 µM

***
Item CS(=O)(=O)NC1CN(c2nc(N3C[C@H]4CC[C@@H](C3)N4)c3ccc(-c4cc(O)cc5ccccc45)c(F)c3n2)C1 [P-0702] has what recorded IC50?
0.0001 to 10 µM

Could you tell me which IC50 is on file for CN(C)c1ccc(/C=C/c2nc(N3[C@@H]4CC[C@H]3CNC4)c3ccc(-c4cc(O)cc5ccccc45)cc3n2)cc1 [P-0244] ?
10 to 100 µM

For the compound CC(CCBr)Oc1nc(N2C[C@H]3CC[C@@H](C2)N3)c2ccc(-c3cc(O)cc4ccccc34)c(F)c2n1 (stereo partly shown) [P-0755] , what IC50 is on record?
0.0001 to 10 µM

For the compound shown here, CN1CCC[C@H]1COc1nc(N2C[C@H]3CC[C@@H](C2)N3C(=N)N)c2ccc(-c3cc(O)cc4ccccc34)c(F)c2n1 [P-0468] , give the reported IC50.
0.0001 to 10 µM

// lookup IC50 for CN1CCC[C@H]1COc1nc(N2C[C@H]3CC[C@@H](C2)N3C2CNC2)c2ccc(-c3cc(O)cc4ccccc34)c(F)c2n1 [P-0430]
10 to 100 µM
